Data provenance: ChEMBL document CHEMBL1138322

# PROTOCOL_DESCRIPTION: Plasma concentration in mouse at 3 mg/kg, ip after 5 mins
MEASURED_ENDPOINT: concentration at 5 min (µM)
# output: bare number, implied unit µM

concentration at 5 min in this record for O=C(O)c1cccnc1 [NIACIN] : 18

###

MEASURED_ENDPOINT: IC50 (µM)
# output: bare number, implied unit µM

Field IC50 (system: Cytochrome P450 2C8 (Homo sapiens, UniProt P10632)) for entry "Cc1c(CCC(=O)Nc2ccccc2C(=O)O)cnn1-c1ccc(O)cc1" = 19

###

Assign pIC50 to each entry below.
Lab note: report pIC50 as minus log10 of the concentration in molar units, number only.

Field pIC50 (system: Cytochrome P450 2C9 (Homo sapiens)) for entry "O=C(CCc1cnc(-c2ccc(O)cn2)s1)Nc1ccccc1C(=O)O" = 5.24

Field pIC50 (system: Cytochrome P450 2C9 (Homo sapiens)) for entry "O=C(CCc1ncc(-c2ccc(O)cn2)s1)Nc1ccccc1C(=O)O" = 5.38

Field pIC50 (system: Cytochrome P450 2C9 (Homo sapiens)) for entry "O=C(CCc1cnc(-c2ccc(O)cc2Cl)s1)Nc1ccccc1C(=O)O" = 5.55

Field pIC50 (system: Cytochrome P450 2C9 (Homo sapiens)) for entry "Cc1c(CCC(=O)Nc2ccccc2C(=O)O)cnn1-c1ccc(O)cc1" = 4.82

###

# MEASUREMENT_TARGET: Hydroxycarboxylic acid receptor 2 (Mus musculus)
# Sequence (Q9EP66 whole entry): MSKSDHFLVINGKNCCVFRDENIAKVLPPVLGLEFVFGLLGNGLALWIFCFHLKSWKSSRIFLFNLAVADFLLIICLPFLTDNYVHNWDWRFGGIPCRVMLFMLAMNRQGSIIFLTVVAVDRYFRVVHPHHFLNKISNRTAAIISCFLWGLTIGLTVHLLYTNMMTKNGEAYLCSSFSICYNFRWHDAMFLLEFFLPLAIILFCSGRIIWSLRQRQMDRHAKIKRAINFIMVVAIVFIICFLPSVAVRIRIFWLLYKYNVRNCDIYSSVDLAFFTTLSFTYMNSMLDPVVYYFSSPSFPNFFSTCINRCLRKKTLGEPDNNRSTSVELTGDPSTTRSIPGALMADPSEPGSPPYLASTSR
# PROTOCOL_DESCRIPTION: Agonist activity at mouse GPR109A by [35S]GTP-gamma-S binding assay
MEASURED_ENDPOINT: EC50 (nM)
# output: bare number, implied unit nM

EC50 in this record for "O=C(CCc1nc(-c2ccc(O)cc2)no1)Nc1ccccc1C(=O)O" : 1600

###

# PROTOCOL_DESCRIPTION: Therapeutic index, ratio of vasodilating effect to IC50 for FFA reduction in mouse
# Format: organism-based
# TEST_SETTINGS: in vivo
MEASURED_ENDPOINT: selectivity ratio

selectivity ratio in this record for "O=C(CCc1nc(-c2ccc(O)cc2)no1)Nc1ccccc1C(=O)O" : > 70

###

# PROTOCOL_DESCRIPTION: Clearance in mouse at 1 mg/kg, iv or 2 mg/kg, po
# Format: ADME, organism-based
# TEST_SETTINGS: in vivo
MEASURED_ENDPOINT: log10 of clearance (log10 of the value in mL/min/kg)
Heads up: the numbers are on a log10 scale; they represent clearance in mL/min/kg.

log10 of clearance in this record for "O=C(CCc1cnc(-c2ccc(O)cc2Cl)s1)Nc1ccccc1C(=O)O" : 0.86

log10 of clearance in this record for "O=C(CCc1cnc(-c2ccc(O)cn2)s1)Nc1ccccc1C(=O)O" : 0.93

log10 of clearance in this record for "O=C(CCc1nc(-c2ccc(O)cc2)no1)Nc1ccccc1C(=O)O" : 1.53

log10 of clearance in this record for "O=C(CCc1ccc(-c2ccc(O)cc2Cl)cc1)Nc1ccccc1C(=O)O" : 1.26

log10 of clearance in this record for "Cc1c(CCC(=O)Nc2ccccc2C(=O)O)cnn1-c1ccc(O)cc1" : 1.41

log10 of clearance in this record for "O=C(CCc1ccc(-c2ccc(O)cn2)cc1)Nc1ccccc1C(=O)O" : -0.42

###

Assign Vd to each entry below.
# PROTOCOL_DESCRIPTION: Volume of distribution at steady state in mouse at 1 mg/kg, iv or 2 mg/kg, po
# Type: ADME, organism-based
# TEST_SETTINGS: in vivo, read-out: Vdss
# output: bare number, implied unit L/kg

Vd in this record for "O=C(CCc1ccc(-c2ccc(O)cn2)cc1)Nc1ccccc1C(=O)O" : 0.11

Vd in this record for "O=C(CCc1cnc(-c2ccc(O)cc2Cl)s1)Nc1ccccc1C(=O)O" : 0.37

Vd in this record for "O=C(CCc1nc(-c2ccc(O)cc2)no1)Nc1ccccc1C(=O)O" : 1.66

Vd in this record for "O=C(CCc1ccc(-c2ccc(O)cc2Cl)cc1)Nc1ccccc1C(=O)O" : 0.35

Vd in this record for "O=C(CCc1cnc(-c2ccc(O)cn2)s1)Nc1ccccc1C(=O)O" : 0.62

Vd in this record for "Cc1c(CCC(=O)Nc2ccccc2C(=O)O)cnn1-c1ccc(O)cc1" : 0.88
